Origin of the recorded values: PubChem BioAssay

- tgt: Mitogen-activated protein kinase 7 (Homo sapiens)
- assay explanation: ERK5 transactivation activators in reporter cells, primary screen, cell-based, HTS (AID 1508626);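 note: luciferase driven by Gal4-ERK5 fusion binding five Gal4 sites before minimal TATA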
- test context: HeLa Gal4-ERK5 transactivation, 18 h, at 5 µM, stronger effect = higher value
Calls of active or inactive are those of the source.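 Rule for the calls: active = luciferase signal above three times the same-plate solvent-only control wells; inactive = the rest.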
value type: luciferase signal

The cases that follow already have their luciferase signal on record.
1. C/C1=C\CCC(=O)C2CC(C)(C)C2CC1 (centres undefined) | 60 AU (inactive)
2. O=C(O)C1(O)C[C@@H](O)C(O)[C@H](O)C1 (some centres undefined) | 12 AU (inactive)
3. CC1(C)C(=O)C=C[C@@]2(C)C1C=C[C@]1(C)C2CC[C@@]2(C)[C@H](c3ccoc3)OC(=O)C3OC321 (some centres undefined) | 40 AU (inactive)
4. CC(C)NCC(O)COc1cccc2ccccc12 (centres undefined) | 48 AU (inactive)
5. NC(=O)c1ccc[n+]([C@@H]2O[C@H](COP(=O)([O-])OP(=O)(O)OC[C@H]3O[C@@H](n4cnc5c(N)ncnc54)[C@H](OP(=O)(O)O)[C@@H]3O)[C@@H](O)[C@H]2O)c1 | 32 AU (inactive)

# input Given "Oc1ccc(O)cc1" , state its recorded luciferase signal.
# output 40 AU (inactive)

# input # luciferase signal lookup, item "C[C@@H]1O[C@@H](O[C@H]2[C@H](O[C@H]3CC[C@@]4(C)[C@@H](CC[C@]5(C)[C@@H]4CC=C4[C@@H]6CC(C)(C)CC[C@]6(C(=O)O)CC[C@]45C)[C@]3(C)CO)OC[C@H](O)[C@@H]2O)[C@H](O)[C@H](O)[C@H]1O"
# output 40 AU (inactive)

# input Any idea what luciferase signal was measured for "Oc1cc(O)c2c(c1)O[C@H](c1ccc(O)c(O)c1)[C@@H](O)C2" ?
# output 24 AU (inactive)

# input Look up luciferase signal for this compound: COC(=O)C(C)c1ccc(C(=O)c2cccs2)cc1 (centres undefined)
# output 44 AU (inactive)
